Property: Kd; scope: individual compounds
Target protein (sequence): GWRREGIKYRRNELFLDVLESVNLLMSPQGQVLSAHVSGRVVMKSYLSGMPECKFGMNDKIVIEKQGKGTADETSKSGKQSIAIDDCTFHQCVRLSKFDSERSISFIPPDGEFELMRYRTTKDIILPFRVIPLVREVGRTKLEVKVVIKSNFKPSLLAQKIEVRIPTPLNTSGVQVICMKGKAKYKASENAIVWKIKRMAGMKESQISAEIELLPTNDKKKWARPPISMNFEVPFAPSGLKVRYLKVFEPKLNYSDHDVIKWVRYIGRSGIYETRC
Non-standard residues stand in square brackets, D forms with d. Residues, ends and D or L forms follow the SMILES beside them. pS = N[C@@H](COP(=O)(O)O)C(=O)O
METRIC: Kd (µM)

CC(=O)N[C@@H](Cc1ccccc1)C(=O)N1CCC[C@H]1C(=O)N[C@@H](CO)C(=O)N[C@@H](CO)C(=O)N[C@@H](Cc1ccc(O)cc1)C(=O)N[C@H](C(=O)N[C@@H](CCCCN)C(=O)N[C@@H](CC(C)C)C(=O)N[C@@H](CC(C)C)C(=O)N[C@@H](CCC(=O)O)C(=O)N[C@@H](CCC(=O)O)C(=O)N[C@@H](CC(N)=O)C(=O)N[C@@H](CCC(=O)O)C(=O)N[C@H](C(=O)N[C@@H](CCC(=O)O)C(=O)N[C@@H](C)C(N)=O)[C@@H](C)O)[C@@H](C)O [BAIAPL1_392–407 wt] (Ac-FPSSYTKLLEENETEA-NH2)    1.29
CC(=O)N[C@@H](Cc1ccccc1)C(=O)N1CCC[C@H]1C(=O)N[C@@H](CO)C(=O)N[C@@H](COP(=O)(O)O)C(=O)N[C@@H](Cc1ccc(O)cc1)C(=O)N[C@H](C(=O)N[C@@H](CCCCN)C(=O)N[C@@H](CC(C)C)C(=O)N[C@@H](CC(C)C)C(=O)N[C@@H](CCC(=O)O)C(=O)N[C@@H](CCC(=O)O)C(=O)N[C@@H](CC(N)=O)C(=O)N[C@@H](CCC(=O)O)C(=O)N[C@H](C(=O)N[C@@H](CCC(=O)O)C(=O)N[C@@H](C)C(N)=O)[C@@H](C)O)[C@@H](C)O [BAIAPL1_392–407 pS] (Ac-FPS[pS]YTKLLEENETEA-NH2)    0.93
